# tgt: TEC (Homo sapiens)
# Sequence (P42680 whole entry): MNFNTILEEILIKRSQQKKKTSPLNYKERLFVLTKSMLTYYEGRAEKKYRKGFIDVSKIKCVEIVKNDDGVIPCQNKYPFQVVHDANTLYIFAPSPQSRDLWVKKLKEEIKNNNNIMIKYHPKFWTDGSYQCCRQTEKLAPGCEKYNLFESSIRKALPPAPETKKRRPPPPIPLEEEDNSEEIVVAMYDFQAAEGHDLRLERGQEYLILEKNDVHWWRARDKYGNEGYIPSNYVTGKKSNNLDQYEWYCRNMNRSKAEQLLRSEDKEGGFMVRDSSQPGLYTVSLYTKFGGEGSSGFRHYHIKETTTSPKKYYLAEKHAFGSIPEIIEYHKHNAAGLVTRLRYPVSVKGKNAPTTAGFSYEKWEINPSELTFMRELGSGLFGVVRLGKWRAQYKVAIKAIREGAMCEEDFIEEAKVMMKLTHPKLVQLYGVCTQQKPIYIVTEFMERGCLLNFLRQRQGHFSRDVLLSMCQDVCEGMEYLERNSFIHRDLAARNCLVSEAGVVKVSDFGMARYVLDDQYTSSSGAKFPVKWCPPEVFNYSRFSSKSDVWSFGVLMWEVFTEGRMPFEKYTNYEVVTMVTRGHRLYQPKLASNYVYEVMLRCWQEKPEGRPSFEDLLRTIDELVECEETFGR
# experimental_protocol: Inhibition of a panel of kinases, in vitro HotSpot kinase assay: TEC
# Type: biochemical
# condition_details: D-compounds panel data; 1 μM ATP
pIC50: −log10 of the molar value.
Examples of compounds with documented pIC50 follow.
measurement_label: pIC50

{"compound": "C[C@@H]1[C@H](NC(=O)c2ccc(C(C)(C)F)cc2)CCCN1c1cnc(C(N)=O)c(Nc2cnn(C)c2)n1 [Example D-251]", "obs_value": "≥ 8.00"}
{"compound": "COCCn1cc(Nc2nc(N3CCC[C@@H](NC(=O)c4ccc(C5CC5)cc4)[C@H]3C)cnc2C(N)=O)cn1 [Example D-270]", "obs_value": "6.00 to 7.00"}
{"compound": "Cc1nc2cc(C(=O)N[C@@H]3CCCN(c4cnc(C(N)=O)c(Nc5cnn(C)c5)n4)[C@@H]3C)ccc2o1 [Example D-238]", "obs_value": "≥ 8.00"}
{"compound": "NC(=O)c1ncc(N2CCC[C@@H](n3ccc4cc(C5CC5)ccc4c3=O)C2)nc1Nc1ccc2ncccc2c1 [Example D-168]", "obs_value": "6.00 to 7.00"}
{"compound": "CC(C)n1nnc2cc(C(=O)N[C@@H]3CCCN(c4cnc(C(N)=O)c(Nc5cnn(C)c5)n4)[C@@H]3C)ccc21 [Example D-255]", "obs_value": "≥ 8.00"}
{"compound": "C[C@@H]1[C@H](NC(=O)c2ccc3scnc3c2)CCCN1c1cnc(C(N)=O)c(Nc2ccc(N3CCN(C)CC3)cc2)n1 [Example D-226]", "obs_value": "≥ 8.00"}
{"compound": "C[C@@H]1[C@H](NC(=O)c2ccc(C3CC3)cc2)CCCN1c1nnc(C(N)=O)c(Nc2cnn(C)c2)n1 [Example D-277]", "obs_value": "≥ 8.00"}

* * *

# tgt: ITK (Homo sapiens, UniProt Q08881)
# Sequence (Q08881 1-620): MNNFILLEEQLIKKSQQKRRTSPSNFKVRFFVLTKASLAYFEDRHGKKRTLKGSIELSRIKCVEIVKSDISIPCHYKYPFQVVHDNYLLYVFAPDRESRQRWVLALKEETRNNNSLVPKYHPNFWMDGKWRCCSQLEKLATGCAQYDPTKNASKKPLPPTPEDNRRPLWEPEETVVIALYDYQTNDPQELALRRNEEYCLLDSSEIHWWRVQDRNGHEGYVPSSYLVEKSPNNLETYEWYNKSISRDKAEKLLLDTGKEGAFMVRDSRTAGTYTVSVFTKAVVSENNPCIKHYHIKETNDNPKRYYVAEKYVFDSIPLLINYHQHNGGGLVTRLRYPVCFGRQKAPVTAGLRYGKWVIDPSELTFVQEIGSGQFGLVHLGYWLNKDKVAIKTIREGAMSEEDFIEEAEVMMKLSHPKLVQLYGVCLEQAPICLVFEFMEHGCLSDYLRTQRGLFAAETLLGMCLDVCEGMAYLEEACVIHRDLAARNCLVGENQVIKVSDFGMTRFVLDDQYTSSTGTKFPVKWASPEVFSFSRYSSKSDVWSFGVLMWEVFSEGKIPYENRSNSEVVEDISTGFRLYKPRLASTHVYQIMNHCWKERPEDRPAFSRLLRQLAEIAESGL
# experimental_protocol: Inhibition of a panel of kinases, in vitro HotSpot kinase assay: ITK
# Format: biochemical
# condition_details: D-compounds panel data; 1 μM ATP
pIC50: −log10 of the molar value.

{"compound": "C[C@@H]1[C@H](NC(=O)c2ccc3ncsc3c2)CCCN1c1cnc(C(N)=O)c(Nc2cnn(C)c2)n1 [Example D-243]", "tgt": "ITK (Homo sapiens, UniProt Q08881)", "pIC50": "6.00 to 7.00"}
{"compound": "C[C@@H]1[C@H](NC(=O)N(C)C)CCCN1c1cnc(C(N)=O)c(Nc2cc(CN3CCOCC3)ns2)n1 [Example D-118]", "tgt": "ITK (Homo sapiens, UniProt Q08881)", "pIC50": "6.00 to 7.00"}
{"compound": "C[C@@H]1[C@H](NC(=O)c2ccc(C(C)(C)C)s2)CCCN1c1cnc(C(N)=O)c(Nc2cnn(C)c2)n1 [Example D-229]", "tgt": "ITK (Homo sapiens, UniProt Q08881)", "pIC50": "5.00 to 6.00"}
{"compound": "C[C@@H]1[C@H](NC(=O)N(C)C)CCCN1c1cnc(C(N)=O)c(Nc2cnn(C)c2)n1 [Example D-128]", "tgt": "ITK (Homo sapiens, UniProt Q08881)", "pIC50": "6.00 to 7.00"}
